Data origin: patent US8822462B2

# target-or-test-system: NR1/NR2D (Homo sapiens, UniProt O15399+Q05586)
# Sequence (O15399 28-1336, species assumed, other chains not shown): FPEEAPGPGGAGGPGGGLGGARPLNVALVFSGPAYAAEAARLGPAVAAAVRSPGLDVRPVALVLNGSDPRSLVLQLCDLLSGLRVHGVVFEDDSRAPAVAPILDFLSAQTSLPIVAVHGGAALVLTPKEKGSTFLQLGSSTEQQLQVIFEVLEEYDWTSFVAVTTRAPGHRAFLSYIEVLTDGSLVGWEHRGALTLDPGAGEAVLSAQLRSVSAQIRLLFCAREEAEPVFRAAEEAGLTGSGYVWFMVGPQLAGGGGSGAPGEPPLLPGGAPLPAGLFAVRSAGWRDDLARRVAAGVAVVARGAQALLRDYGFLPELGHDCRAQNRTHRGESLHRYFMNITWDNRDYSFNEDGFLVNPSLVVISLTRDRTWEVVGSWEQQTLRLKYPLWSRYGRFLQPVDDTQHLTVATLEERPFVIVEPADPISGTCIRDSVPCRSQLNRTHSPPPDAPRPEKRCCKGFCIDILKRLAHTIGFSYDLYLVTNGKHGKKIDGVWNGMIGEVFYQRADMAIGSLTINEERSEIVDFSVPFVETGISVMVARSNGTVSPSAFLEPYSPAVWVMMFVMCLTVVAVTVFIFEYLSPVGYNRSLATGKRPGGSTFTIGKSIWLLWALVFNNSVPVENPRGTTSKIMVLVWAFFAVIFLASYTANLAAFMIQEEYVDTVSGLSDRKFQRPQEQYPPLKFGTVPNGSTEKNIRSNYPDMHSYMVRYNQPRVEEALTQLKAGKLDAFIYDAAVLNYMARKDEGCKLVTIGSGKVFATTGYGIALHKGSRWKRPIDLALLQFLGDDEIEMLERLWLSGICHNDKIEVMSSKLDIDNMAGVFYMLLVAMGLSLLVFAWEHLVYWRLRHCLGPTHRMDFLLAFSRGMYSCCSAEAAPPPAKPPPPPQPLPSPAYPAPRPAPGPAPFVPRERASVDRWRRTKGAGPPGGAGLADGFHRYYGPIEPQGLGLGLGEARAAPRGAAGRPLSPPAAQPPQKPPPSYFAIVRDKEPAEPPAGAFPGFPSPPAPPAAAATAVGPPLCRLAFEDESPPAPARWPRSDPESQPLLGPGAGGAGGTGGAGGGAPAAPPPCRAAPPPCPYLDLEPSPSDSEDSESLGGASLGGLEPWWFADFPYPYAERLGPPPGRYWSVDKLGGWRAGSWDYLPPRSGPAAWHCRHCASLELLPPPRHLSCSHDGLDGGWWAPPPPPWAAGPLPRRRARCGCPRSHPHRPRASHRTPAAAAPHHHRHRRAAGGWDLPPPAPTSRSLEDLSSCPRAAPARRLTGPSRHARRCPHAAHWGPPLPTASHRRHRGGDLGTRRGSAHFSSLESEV
# assay: Two electrode voltage clamp, Xenopus laevis oocytes expressing NR1/NR2D
# particulars: read-out: 2D percent effect at the maximum tested concentration, at 100 μM
quantity: activity at 100 µM (%)

(Q) Can you share its activity at 100 µM? I mean this compound: COc1ccc(NC(O)C2CN(C)C(=O)c3cc(OC)c(OC)cc32)c(OC)c1 (stereo not shown)
(A) 87

(Q) Quick one: activity at 100 µM for COc1ccc(NC(O)C2CN(C(C)C)C(=O)c3cc(OC)c(OC)cc32)c(OC)c1 (stereo not shown) ?
(A) 82

(Q) Quick one: activity at 100 µM of `Cc1cc(NC(=O)c2ccc(C(C)(C)C)cc2)no1` ?
(A) 86

(Q) Consider the compound COC(=O)c1ccc(OCC2c3cc(OC)c(OC)cc3CCN2C(=O)c2cccc(Br)c2)cc1 (stereo not shown) and give its measured activity at 100 µM.
(A) 89

(Q) Request the reported activity at 100 µM associated with COc1ccc(OCC2c3cc(OC)c(OC)cc3CCN2S(=O)(=O)c2ccccc2)cc1 (stereo not shown)
(A) 79

1: COc1ccc(OCC2c3cc(OC)c(OC)cc3CCN2C(=S)Nc2cccc(Cl)c2)cc1 (stereo not shown)
2: COc1cc2c(cc1OC)C(COc1ccc(OCc3ccccc3)cc1)N(C(=O)c1cccc(Cl)c1)CC2 (stereo not shown)
(Q) Looking at 1 and 2 , which one comes out lower in activity at 100 µM terms? State the label of the item chosen.
(A) 2

I: COC(=O)c1ccc(OCC2c3cc(OC)c(OC)cc3CCN2C(=O)c2cccc(Cl)c2)cc1 (stereo not shown)
II: CCc1ccc(C(=O)Nc2sccc2C(=O)O)cc1
(Q) Short answer wanted: higher activity at 100 µM, I or II ? Mark your answer with the label of the selected entry.
(A) I
(I: 111%, II: 76%)

====

The entries below come with measured pIC50 values attached.
# target-or-test-system: NR1/NR2C (Homo sapiens, UniProt Q05586+Q14957)
# Sequence (Q14957 20-1233, species assumed, other chains not shown): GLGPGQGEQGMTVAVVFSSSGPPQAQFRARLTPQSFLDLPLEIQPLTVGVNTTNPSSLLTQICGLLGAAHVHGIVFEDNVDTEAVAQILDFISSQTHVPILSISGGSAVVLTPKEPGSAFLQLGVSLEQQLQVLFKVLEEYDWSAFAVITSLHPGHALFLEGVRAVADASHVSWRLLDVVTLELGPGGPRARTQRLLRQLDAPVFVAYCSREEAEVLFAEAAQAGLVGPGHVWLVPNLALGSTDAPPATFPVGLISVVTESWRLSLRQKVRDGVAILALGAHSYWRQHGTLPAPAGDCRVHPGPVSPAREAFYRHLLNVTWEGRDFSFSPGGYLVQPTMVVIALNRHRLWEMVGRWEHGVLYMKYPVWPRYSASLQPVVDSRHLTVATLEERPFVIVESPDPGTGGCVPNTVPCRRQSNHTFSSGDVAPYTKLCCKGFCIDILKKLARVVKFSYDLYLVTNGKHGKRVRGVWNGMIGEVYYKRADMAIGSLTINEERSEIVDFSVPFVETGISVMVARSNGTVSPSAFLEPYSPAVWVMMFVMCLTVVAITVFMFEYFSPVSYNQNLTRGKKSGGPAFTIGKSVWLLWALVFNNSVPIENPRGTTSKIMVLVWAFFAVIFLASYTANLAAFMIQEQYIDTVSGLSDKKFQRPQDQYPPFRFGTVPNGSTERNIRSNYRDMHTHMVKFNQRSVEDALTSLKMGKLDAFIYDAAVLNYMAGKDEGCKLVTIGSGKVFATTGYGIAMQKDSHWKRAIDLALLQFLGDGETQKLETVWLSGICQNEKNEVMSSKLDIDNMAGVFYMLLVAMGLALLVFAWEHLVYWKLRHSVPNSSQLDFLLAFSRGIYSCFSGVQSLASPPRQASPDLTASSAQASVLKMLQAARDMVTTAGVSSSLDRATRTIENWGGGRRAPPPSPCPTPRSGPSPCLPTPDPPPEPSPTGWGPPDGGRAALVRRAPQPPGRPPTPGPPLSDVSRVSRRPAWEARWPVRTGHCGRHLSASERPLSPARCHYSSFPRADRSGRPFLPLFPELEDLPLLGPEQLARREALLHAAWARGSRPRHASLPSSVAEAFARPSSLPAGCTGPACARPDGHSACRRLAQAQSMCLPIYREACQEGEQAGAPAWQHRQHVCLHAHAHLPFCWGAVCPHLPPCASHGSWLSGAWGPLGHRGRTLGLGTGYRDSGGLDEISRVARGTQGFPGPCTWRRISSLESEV
# assay: Two electrode voltage clamp, Xenopus laevis oocytes expressing NR1/NR2C
# particulars: fitted to composite concentration-effect data; read-out: 2C IC50
Please treat pIC50 as minus the base-10 logarithm of the molar concentration.

// known answers, use as guide
(Q) // pIC50 lookup, key: COc1ccc(OCC2c3cc(OC)c(OC)cc3CCN2C(=O)c2ccc(F)c(Cl)c2)cc1 (centres unmarked)
(A) 5.22

(Q) Can you look up the measured pIC50 of COc1ccc(OCC2c3cc(OC)c(OC)cc3CCN2C(=O)c2cccc([N+](=O)[O-])c2)cc1 (centres unmarked) for me?
(A) 4.89

***
(Q) // returns reported pIC50 for input `CC(C)(C)c1ccc(C(=O)Nc2sc3c(c2C(=O)O)CCCC3)cc1`
(A) 4.70

(Q) Find the recorded pIC50 belonging to COc1ccc(OCC2c3cc(OC)c(OC)cc3CCN2C(=O)c2cccc(OC)c2)cc1 (centres unmarked) and report it.
(A) 5.22

(Q) Could you share which pIC50 value was measured for `COc1ccc(OC[C@@H]2c3cc(OC)c(OC)cc3CCN2C(=O)c2cccc(Cl)c2)cc1` ?
(A) 5.62

(Q) Item COc1ccc(OCC2c3cc(OC)c(OC)cc3CCN2C(=O)c2cccs2)cc1 (centres unmarked) has what recorded pIC50?
(A) 5.05

(Q) Please give the measured pIC50 for this molecule: `CSC1=NCCN1C(=O)c1ccc(C(C)(C)C)cc1`
(A) 3.86

(Q) Query (molecule): COc1ccc(/C=C/C2c3cc(OC)c(OC)cc3CCN2C(=O)c2cccc(Cl)c2)cc1 (centres unmarked) ; field requested: pIC50
(A) 5.92

(Q) Request the reported pIC50 associated with COc1ccc(OCC2c3cc(OC)c(OC)cc3CCN2C(=O)c2ccc(Cl)c(Cl)c2)cc1 (centres unmarked)
(A) 5.52

====

# target-or-test-system: NR1/NR2A (Homo sapiens)
# Construct: expressed in transfected cells; host or cells: Xenopus laevis oocytes
# Sequence (Q12879 23-1464, species assumed, other chains not shown): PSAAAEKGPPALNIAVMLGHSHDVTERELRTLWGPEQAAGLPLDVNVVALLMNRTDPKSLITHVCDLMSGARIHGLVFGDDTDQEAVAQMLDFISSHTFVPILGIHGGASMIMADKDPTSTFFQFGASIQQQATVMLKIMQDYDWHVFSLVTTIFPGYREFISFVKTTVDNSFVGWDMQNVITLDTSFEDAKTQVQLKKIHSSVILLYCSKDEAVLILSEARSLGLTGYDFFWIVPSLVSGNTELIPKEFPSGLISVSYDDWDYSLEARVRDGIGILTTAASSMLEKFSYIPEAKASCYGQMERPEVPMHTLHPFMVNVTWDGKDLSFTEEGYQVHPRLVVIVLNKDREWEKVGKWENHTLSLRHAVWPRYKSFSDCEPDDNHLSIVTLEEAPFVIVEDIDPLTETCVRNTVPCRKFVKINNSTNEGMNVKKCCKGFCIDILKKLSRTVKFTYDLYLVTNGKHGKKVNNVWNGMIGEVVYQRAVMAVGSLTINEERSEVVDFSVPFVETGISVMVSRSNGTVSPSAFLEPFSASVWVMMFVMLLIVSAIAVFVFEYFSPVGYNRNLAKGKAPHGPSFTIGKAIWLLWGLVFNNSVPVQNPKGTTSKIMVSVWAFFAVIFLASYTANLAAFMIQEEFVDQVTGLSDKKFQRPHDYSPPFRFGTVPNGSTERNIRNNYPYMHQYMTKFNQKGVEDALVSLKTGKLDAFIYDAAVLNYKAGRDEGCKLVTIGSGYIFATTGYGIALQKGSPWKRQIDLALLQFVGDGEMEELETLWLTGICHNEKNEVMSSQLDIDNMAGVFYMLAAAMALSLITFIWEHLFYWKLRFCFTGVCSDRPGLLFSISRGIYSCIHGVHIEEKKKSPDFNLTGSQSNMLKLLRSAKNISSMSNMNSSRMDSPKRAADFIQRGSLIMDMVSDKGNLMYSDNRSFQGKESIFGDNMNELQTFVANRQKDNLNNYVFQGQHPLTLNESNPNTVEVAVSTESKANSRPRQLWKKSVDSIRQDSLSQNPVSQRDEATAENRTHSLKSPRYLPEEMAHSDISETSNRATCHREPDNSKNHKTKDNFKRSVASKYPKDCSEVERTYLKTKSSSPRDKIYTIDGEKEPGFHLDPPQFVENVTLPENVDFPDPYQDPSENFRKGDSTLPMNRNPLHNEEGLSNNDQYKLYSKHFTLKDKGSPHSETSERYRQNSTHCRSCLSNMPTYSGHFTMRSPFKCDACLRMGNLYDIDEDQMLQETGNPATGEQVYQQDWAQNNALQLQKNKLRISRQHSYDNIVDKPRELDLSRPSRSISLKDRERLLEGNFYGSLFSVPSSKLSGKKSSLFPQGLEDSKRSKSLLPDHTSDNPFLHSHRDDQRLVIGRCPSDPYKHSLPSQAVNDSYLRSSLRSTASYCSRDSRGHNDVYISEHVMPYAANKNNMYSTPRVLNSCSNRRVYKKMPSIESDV
# assay: Two electrode voltage clamp, Xenopus laevis oocytes expressing NR1/NR2A
# Type: cell-based
# particulars: at 100 μM; read-out: 2A percent effect at the maximum tested concentration
quantity: activity at 100 µM (%)

(Q) If you can, please state the reported activity at 100 µM value of `COc1cc2c(cc1OC)CN(C(=O)c1cccc(Cl)c1)CC2` .
(A) 75

(Q) For the compound shown here, COc1ccc(OCC2c3cc(OC)c(OC)cc3CCN2C(=O)c2ccc(C)cc2)cc1 (stereo not drawn) , give the reported activity at 100 µM.
(A) 73

(Q) Bench note: what activity at 100 µM did COc1cccc(OCC2c3cc(OC)c(OC)cc3CCN2C(=O)c2ccccc2)c1 (stereo not drawn) show?
(A) 94

(Q) Request the reported activity at 100 µM associated with COc1cc2c(cc1OC)C(CCc1ccccc1)N(C(=O)c1cccc(F)c1)CC2 (stereo not drawn)
(A) 110

(Q) Given the compound `O=C(O)c1c(NC(=O)c2cccc3ccccc23)sc2c1CCC2` , what is its reported activity at 100 µM?
(A) 81

(Q) Data request, read-out activity at 100 µM, for `CSC1=NCCN1C(=O)c1ccc(C(C)(C)C)cc1`
(A) 115

(Q) For COc1cc2c(cc1OC)C(COc1ccc(SC)cc1)N(C(=O)c1cccc(Cl)c1)CC2 (stereo not drawn) , what is its reported activity at 100 µM?
(A) 112

(Q) State the recorded activity at 100 µM for this entry: `Cc1ccnc(NC(=O)c2ccc(C(C)(C)C)cc2)c1`
(A) 89

(Q) Would you kindly share the measured activity at 100 µM for COc1cc2c(cc1OC)C(COc1ccccc1OC)N(C(=O)c1cccc(Cl)c1)CC2 (stereo not drawn) ?
(A) 99

====

# target-or-test-system: NR1/NR2D (Homo sapiens, UniProt O15399+Q05586)
# assay: Two electrode voltage clamp, Xenopus laevis oocytes expressing NR1/NR2D
# particulars: read-out: 2D percent effect at the maximum tested concentration, at 100 μM
quantity: activity at 100 µM (%)

(Q) Request the reported activity at 100 µM associated with `Cc1ccc(C(=O)Nc2sc(C)cc2C(=O)O)cc1`
(A) 77

(Q) // lookup activity at 100 µM for `Cc1ccc(CSc2nccn2C(=O)c2ccc(C(C)(C)C)cc2)cc1`
(A) 86

(Q) Item under review: COc1ccc(OCC2c3cc(OC)c(OC)cc3CCN2C(=O)c2ccccc2C)cc1 (stereo not shown) . Reported activity at 100 µM?
(A) 97

(Q) Name the reported activity at 100 µM value associated with the molecule `O=C(O)c1c(NC(=O)c2cccc3ccccc23)sc2c1CCC2`
(A) 86

====

# target-or-test-system: NR1/NR2C (Homo sapiens, UniProt Q05586+Q14957)
# assay: Two electrode voltage clamp, Xenopus laevis oocytes expressing NR1/NR2C
# particulars: fitted to composite concentration-effect data; read-out: 2C IC50
Here, each record is paired with measured pIC50 data.
The scale used: pIC50 is minus the common logarithm of the concentration in molar units.

(Q) Lookup: pIC50 / NR1/NR2C (Homo sapiens, UniProt Q05586+Q14957) / `Cc1sc(NC(=O)c2ccc(C(C)(C)C)cc2)c(C(N)=O)c1C`
(A) 4.29

Others:
(Q) # value lookup — system NR1/NR2C (Homo sapiens, UniProt Q05586+Q14957), readout pIC50, item `Cc1cc(C(=O)O)c(NC(=O)c2ccc(C(C)(C)C)cc2)s1`
(A) 3.76

(Q) Checklist item: pIC50 tested on NR1/NR2C (Homo sapiens, UniProt Q05586+Q14957), entry `Cc1ccc(-c2csc(NC(=O)c3ccc(C(C)(C)C)cc3)c2C(=O)O)cc1` , value?
(A) 4.80

(Q) Which measured pIC50 belongs to COc1ccc(OCC2c3cc(OC)c(OC)cc3CCN2C(=O)c2cccc(C)c2)cc1 (centres unmarked) , tested on NR1/NR2C (Homo sapiens, UniProt Q05586+Q14957)?
(A) 5.30

(Q) Query the reported pIC50 for NR1/NR2C (Homo sapiens, UniProt Q05586+Q14957); item: COc1ccc(OCC2c3ccc(OC)cc3CCN2C(=O)c2cccc(Cl)c2)cc1 (centres unmarked)
(A) 6.10

(Q) I'm curious: which pIC50 was measured for CC(C)(C)c1ccc(C(=O)NC2=C(C(=O)O)C3CCCCCC3S2)cc1 (centres unmarked) tested on NR1/NR2C (Homo sapiens, UniProt Q05586+Q14957)?
(A) 4.72

(Q) Item COc1ccc(OCC2c3cc(OC)c(OC)cc3CCN2C(=O)c2ccccc2)cc1 (centres unmarked) with NR1/NR2C (Homo sapiens, UniProt Q05586+Q14957) - pIC50?
(A) 4.92

(Q) Can you look up pIC50 on NR1/NR2C (Homo sapiens, UniProt Q05586+Q14957) for COc1ccc(OCC2c3c(cc(OC)cc3OC)CCN2C(=O)c2cccc(Br)c2)cc1 (centres unmarked) ?
(A) 5.15
